# System: Aβ42
# assay-overview: Demonstration of in vivo efficacy: Aβ42 lowering in brain after single oral dose (Table 13)
# assay-setup: mouse brain soluble fraction, ELISA, mean, compared to untreated animals
Use true when the recorded Aβ42 (% Ctrl)_Mean is no lower than 70 % Ctrl; use false when it is lower.

INSERT INTO assay_data (compound, discrete_label) VALUES
  ('COc1nc(Nc2cccn3c(C)c(-c4ccccc4C(F)(F)F)nc23)ccc1-n1cnc(C)c1 [Compound 138]', 'false'),
  ('COc1cc(Nc2cccn3cc(C4CCOCC4)nc23)ccc1-n1cnc(C)c1 [Compound 4]', 'true'),
  ('Cc1ncn(-c2ccc(Nc3cccn4cc(-c5ccc(F)cc5C)nc34)cn2)n1 [Compound 98]', 'true'),
  ('Cc1ncn(-c2ccc(Nc3cccn4cc(-c5cc(C(F)(F)F)ccc5C)nc34)cc2F)n1 [Compound 74]', 'true'),
  ('Cc1ncn(-c2ccc(Nc3cccn4c(C)c(-c5ccccc5Cl)nc34)cn2)n1 [Compound 87]', 'true'),
  ('COc1cc(Nc2cccn3cc(C)nc23)ccc1-n1cnc(C)c1 [Compound 50]', 'false'),
  ('CCCc1nc2c(Nc3ccc(-n4cnc(C)c4)c(OC)c3)cccn2c1CC [Compound 10]', 'false');

Entry COc1cc(Nc2cccn3c(C)c(-c4ccccc4C(F)(F)F)nc23)ccc1-n1cnc(C)c1 [Compound 29] : is its Aβ42 (% Ctrl)_Mean no less than 70 % Ctrl?
false
